# assay.protocol: Antioxidant activity assessed as DPPH radical scavenging activity after 30 mins by spectrophotometry
# Format: physicochemical
pEC50: −log10 of the molar value.
assay.readout: pEC50

# compound, result
measured = [
    ("O=C1c2c(O)cc(O)cc2O[C@@H](c2cc(O)cc(O)c2)[C@@H]1O", "< 4.00"),
]

Request: For the compound O=C1c2c(O)cc(O)cc2O[C@H](c2cccc(O)c2)[C@H]1O , report pEC50.
Response: < 4.00

Request: # return recorded pEC50 for entry COc1ccc([C@H]2Oc3cc(O)cc(O)c3C(=O)[C@@H]2O)c(OC)c1
Response: < 4.00

Request: Report pEC50, nothing else, for this compound: COc1ccc([C@@H]2Oc3cc(O)cc(O)c3C(=O)[C@H]2O)c(OC)c1
Response: < 4.00

Request: Assign pEC50 to the following record: O=C1c2c(O)cc(O)cc2O[C@@H](c2cc(O)ccc2O)[C@@H]1O
Response: 4.60

Request: Please indicate pEC50 recorded for O=C1c2c(O)cc(O)cc2O[C@H](c2ccc(O)cc2)[C@H]1O [DIHYDROKAEMPFEROL]
Response: < 4.00

Request: Give the reported pEC50 for this compound. O=C1c2c(O)cc(O)cc2O[C@H](c2ccccc2O)[C@H]1O
Response: < 4.00

Request: Please report pEC50 for the following compound: O=C1c2c(O)cc(O)cc2O[C@@H](c2ccc(O)c(O)c2)[C@@H]1O
Response: 4.90

Request: Tell us which pEC50 value is on record for O=C(O)c1cc(O)c(O)c(O)c1
Response: 5.00

Request: Specify measured pEC50 for COc1ccc(OC)c([C@H]2Oc3cc(O)cc(O)c3C(=O)[C@@H]2O)c1 .
Response: < 4.00

---

Here, each record is paired with measured pEC50 data.
# assay.protocol: Antioxidant activity assessed as DPPH radical scavenging activity after 30 mins by spectrophotometry
# Assay type: physicochemical
pEC50: −log10 of the molar value.

Look over these answered cases.
# molecule, assay.readout, result
data = [
    ("COc1cccc(OC)c1C1Oc2cc(O)cc(O)c2C(=O)C1O (racemic)", "pEC50", "< 4.00"),
    ("COc1ccc([C@@H]2Oc3cc(O)cc(O)c3C(=O)[C@H]2O)cc1", "pEC50", "< 4.00"),
    ("O=C1c2c(O)cc(O)cc2O[C@H](c2cc(O)cc(O)c2)[C@H]1O", "pEC50", "< 4.00"),
    ("COc1ccc(OC)c([C@@H]2Oc3cc(O)cc(O)c3C(=O)[C@H]2O)c1", "pEC50", "< 4.00"),
]

Request: // Input: COc1cccc([C@H]2Oc3cc(O)cc(O)c3C(=O)[C@@H]2O)c1 . Output its pEC50 only.
Response: < 4.00

Request: Fill in pEC50 for record O=C1c2c(O)cc(O)cc2O[C@@H](c2ccc(O)cc2O)[C@@H]1O
Response: < 4.00

Request: Complete the entry with pEC50 for O=C1c2c(O)cc(O)cc2O[C@@H](c2ccccc2O)[C@@H]1O
Response: < 4.00

Request: Quote pEC50 reported for O=C1c2c(O)cc(O)cc2O[C@H](c2cccc(O)c2O)[C@H]1O please.
Response: 4.90

Request: For the molecule O=C1c2c(O)cc(O)cc2O[C@H](c2ccc(O)cc2O)[C@H]1O [DIHYDROMORIN] , give its measured pEC50 value.
Response: < 4.00

Values were extracted from ChEMBL document CHEMBL3632598.
